Ref: PubChem BioAssay

The entries below are paired with their reported z-score.
TEST SUMMARY: splicing luciferase reporter signal modulators, primary screen, spliceosome inhibition project, cell-based, HEK293, splice +/- reporter (AID 1101);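 note: HEK293 cells carrying a splicing-competent luciferase reporter gene; test concentration not given here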
CONDITION LABEL: luminescence, 24 h, higher = more signal, called active from +8 up or from −8 down
OBSERVABLE: z-score

1. C[C@@H]1NC(=O)[C@H](Cc2ccccc2)NC(=O)[C@@]23C(=O)N[C@@H](Cc4ccccc4)C2[C@H](C)[C@@]2(C)O[C@H]2C3/C=C/C/C=C\CNC1=O (some centres undefined) : -0.212
2. CO[C@H]1COC(=O)[C@H](CCSC)NC(=O)CC=C[C@@H](C)COC(=O)[C@@H](OCc2ccccc2)C=C[C@@H]1C : -0.342
3. CCN1C(C)=C(C(=O)OC)[C@@H](c2ccccc2)N2C(=O)[C@@]3(C(=O)OC)O[C@@]12[C@@H]1C(=O)CCC[C@@H]13 : -0.814
4. CO[C@H]1COC(=O)[C@@H](C)NC(=O)CC=C[C@@H](C)[C@H](OC)COC(=O)CC=C[C@@H]1C : -1.59
